pKi: −log10 of the molar value.
// Alpha-1B adrenergic receptor (Homo sapiens) pKi records

# COMPOUND, TARGET_ENTITY, SIGN, pKi
records = [
    ("CCc1nc2c3ccccc3nc-2c(O)n1CCCN1CCN(c2ccccc2OC)CC1", "Alpha-1B adrenergic receptor (Homo sapiens)", "=", 7.56),
    ("COc1ccccc1N1CCN(CCn2c(C)nc3c4ccccc4nc-3c2O)CC1", "Alpha-1B adrenergic receptor (Homo sapiens)", "=", 7.68),
    ("Cc1nc2c3ccccc3nc-2c(O)n1CCN1CCN(c2ccc(C(C)C)cc2)CC1", "Alpha-1B adrenergic receptor (Homo sapiens)", "=", 5.39),
    ("Cc1nc2c3ccccc3nc-2c(O)n1CCN1CCN2c3ccccc3OCC2C1 (stereo unspecified)", "Alpha-1B adrenergic receptor (Homo sapiens)", "<", 5.00),
    ("COc1ccccc1N1CCN(CCn2nc(-c3ccccc3)c3c(C)onc3c2=O)CC1", "Alpha-1B adrenergic receptor (Homo sapiens)", "=", 7.51),
    ("COc1ccccc1N1CCN(CCn2cnc3c4ccccc4nc-3c2O)CC1", "Alpha-1B adrenergic receptor (Homo sapiens)", "=", 7.86),
]
